These data points were gathered from paper PMC6200708.

# Experimental System: HmuY (Porphyromonas gingivalis, UniProt A2BCY8)
# Sequence (A2BCY8 entry or part of it): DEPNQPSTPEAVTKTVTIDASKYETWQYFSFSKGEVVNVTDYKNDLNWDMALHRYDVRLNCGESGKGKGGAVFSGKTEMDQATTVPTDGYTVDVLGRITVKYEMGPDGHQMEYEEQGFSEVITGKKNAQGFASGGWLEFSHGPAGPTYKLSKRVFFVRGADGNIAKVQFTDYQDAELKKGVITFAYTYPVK
# Assay Info: UV-visible difference-spectrum heme titration of purified protein, one-site model; CD and MCD
Readout Type: Kd

stdin: Notebook: pull reported Kd for HmuY (Porphyromonas gingivalis, UniProt A2BCY8), entry C=CC1=C(C)C2=Cc3c(C=C)c(C)c4[n]3[Fe][n]3c(c(C)c(CCC(=O)O)c3=CC3=NC(=C4)C(C)=C3CCC(=O)O)=CC1=N2
stdout: < 1 nM
